Cited source: PubChem BioAssay (Tox21)

# Assay info: A CellTox Green Cytotoxicity Assay to monitor cytotoxicity in HepG2 cells - 40 hour (AID 1224879); also: nearly all actives have a fitted effect of over 40% in size
# Measurement context: CellTox Green fluorescence; series mostly up to 76.8 µM
Inconclusive results are not listed. Active and inactive are the calls of the source. Calls follow the shape of the dose curve; as a rule, active = well fitted activation curve with a large enough effect in the repeat runs; inconclusive = weak or mixed curves; inactive = flat fitted curve, though single readings scatter.
Readout type: cytotoxicity increase

Consider the worked cases shown below.
[[record]]
smiles = "C[C@H]1C[C@H]2[C@@H]3CCC4=CC(=O)C=C[C@]4(C)[C@H]3C(=O)C[C@]2(C)[C@@]1(O)C(=O)CO"
test_value = "inactive"

[[record]]
smiles = "O=C(O)c1cc(C(=O)O)cc(C(=O)O)c1"
test_value = "inactive"

[[record]]
smiles = "CCCO[Si](OCCC)(OCCC)OCCC"
test_value = "inactive"

[[record]]
smiles = "C1CCC2=NCCCN2CC1"
test_value = "inactive"

[[record]]
smiles = "CCCCCC(=O)OCCc1ccccc1"
test_value = "inactive"


# evaluate next
Prompt: Provide one value: measured cytotoxicity increase of COc1cc2c(cc1OC)-c1cc3ccc(OC)c(OC)c3c[n+]1CC2
Completion: inactive
